# literature pull: ROCK2 (Homo sapiens) IC50
# Sequence (O75116 whole entry, species assumed): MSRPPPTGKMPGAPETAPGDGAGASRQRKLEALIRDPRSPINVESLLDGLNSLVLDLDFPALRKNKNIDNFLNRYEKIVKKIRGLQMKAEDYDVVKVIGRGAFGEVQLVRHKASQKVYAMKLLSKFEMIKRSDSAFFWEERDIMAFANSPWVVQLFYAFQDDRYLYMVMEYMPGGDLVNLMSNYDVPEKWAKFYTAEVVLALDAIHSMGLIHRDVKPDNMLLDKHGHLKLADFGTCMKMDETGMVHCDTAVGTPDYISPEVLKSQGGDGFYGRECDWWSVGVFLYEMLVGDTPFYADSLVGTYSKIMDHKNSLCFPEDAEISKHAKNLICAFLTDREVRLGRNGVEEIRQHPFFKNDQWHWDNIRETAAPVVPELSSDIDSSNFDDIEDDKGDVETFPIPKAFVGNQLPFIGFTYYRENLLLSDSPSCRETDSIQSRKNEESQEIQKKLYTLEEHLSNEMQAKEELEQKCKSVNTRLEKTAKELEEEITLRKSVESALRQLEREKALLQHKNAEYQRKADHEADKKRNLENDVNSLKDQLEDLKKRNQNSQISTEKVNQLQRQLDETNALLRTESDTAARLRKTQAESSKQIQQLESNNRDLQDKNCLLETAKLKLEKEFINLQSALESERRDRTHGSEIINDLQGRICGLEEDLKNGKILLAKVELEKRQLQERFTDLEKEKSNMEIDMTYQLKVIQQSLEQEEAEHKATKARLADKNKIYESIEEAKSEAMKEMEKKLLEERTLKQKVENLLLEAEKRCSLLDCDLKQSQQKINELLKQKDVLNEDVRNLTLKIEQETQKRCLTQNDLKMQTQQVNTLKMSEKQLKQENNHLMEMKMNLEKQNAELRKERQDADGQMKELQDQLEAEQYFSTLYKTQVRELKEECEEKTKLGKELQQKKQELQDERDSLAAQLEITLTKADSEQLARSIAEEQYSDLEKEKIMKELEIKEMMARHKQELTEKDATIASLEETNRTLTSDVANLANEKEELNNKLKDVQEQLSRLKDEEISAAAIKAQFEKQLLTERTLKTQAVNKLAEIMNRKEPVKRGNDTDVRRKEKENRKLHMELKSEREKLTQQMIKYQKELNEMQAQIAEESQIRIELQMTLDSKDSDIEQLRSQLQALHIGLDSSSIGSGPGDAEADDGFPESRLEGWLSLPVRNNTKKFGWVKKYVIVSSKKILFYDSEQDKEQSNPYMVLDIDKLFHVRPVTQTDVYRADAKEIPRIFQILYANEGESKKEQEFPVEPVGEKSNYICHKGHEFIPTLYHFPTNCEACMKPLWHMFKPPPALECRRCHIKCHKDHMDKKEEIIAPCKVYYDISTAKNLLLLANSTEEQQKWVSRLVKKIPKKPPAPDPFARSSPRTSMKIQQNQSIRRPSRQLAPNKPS

Field: example entries. Status: answers known.
1) [H][C@]1(c2n[nH]c(=O)c3ccccc32)C[C@]2(C[C@@H](N(C)C(=O)c3nn(C)c4ccccc34)C2)C1 (stereo partly drawn) : 100 to 2100 nM
2) O=C(NC1CC2(C1)CC(c1n[nH]c(=O)c3ccccc13)C2)N1Cc2ccc(-c3cnn(C4CC4)c3)cc2C1 (stereo not drawn) : 2.01 to 5 nM
3) O=C(NC1CC2(C1)CC(c1n[nH]c(=O)c3ccccc13)C2)c1cnn2cc(OC3CCS(=O)(=O)CC3)ccc12 (stereo not drawn) : 0.2 to 2 nM
4) COCCOc1cc(F)cc(CNC(=O)N2CCc3cc(-c4cn[nH]c4)ccc32)c1 : ≤ 50 nM
5) COc1nc(N2CCN(Cc3ccc(F)cc3F)C2=O)ccc1-c1cn[nH]c1 : 20.1 to 200 nM

The record that follows has no IC50 shown yet.
Ask: Reported IC50, compound [H][C@]1(c2n[nH]c(=O)c3ccccc32)C[C@]2(C[C@@H](NC(=O)c3cnc4cc(N5CCC(F)(F)CC5)ccn34)C2)C1 (stereo partly drawn) : ____
Reply: 0.2 to 2 nM
